target: human neutrophil elastase (Homo sapiens, UniProt P08246); construct: purchased Elastin Products Company; experiment: Inhibitory action against human neutrophil elastase (Test Example 1; fluorogenic substrate MeOSuc-AAPV-AMC, buffer with 2M NaCl, 0.002% Brij-35); type: biochemical; conditions: 37° C., read-out: IC50 value (compound concentration required for 50% inhibition of human neutrophil elastase)
Sequence (P08246 30-267): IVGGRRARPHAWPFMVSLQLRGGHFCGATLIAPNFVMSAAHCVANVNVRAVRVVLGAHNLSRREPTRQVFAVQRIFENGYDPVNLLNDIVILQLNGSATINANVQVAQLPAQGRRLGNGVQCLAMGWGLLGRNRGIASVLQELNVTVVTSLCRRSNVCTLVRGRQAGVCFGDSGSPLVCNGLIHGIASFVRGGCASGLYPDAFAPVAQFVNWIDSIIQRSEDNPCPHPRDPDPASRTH
IC50 values by entry

COMPOUND: Cc1c(-c2ccnn2-c2ccc(C#N)cc2)c(=O)n(C)c(=O)n1-c1cccc(C(C)(C)C)c1 [Example 38]
IC50 (nM): 7910

COMPOUND: Cc1c(-c2ccnn2-c2ccc(C#N)cc2)c(=O)n(C)c(=O)n1-c1cccc(F)c1 [Example 11]
IC50 (nM): 1360

COMPOUND: COc1ccc(-n2nccc2-c2c(C)n(-c3cccc(C(F)(F)F)c3)c(=O)n(C)c2=O)cc1 [Example 40]
IC50 (nM): 8340

COMPOUND: Cc1c(-c2ccnn2-c2ccc(C#N)nc2)c(=O)n(C)c(=O)n1-c1cccc(C(F)(F)F)c1 [Example 23]
IC50 (nM): 651

COMPOUND: CCCn1c(=O)c(-c2ccnn2-c2ccc(C#N)cc2)c(C)n(-c2cccc(C(F)(F)F)c2)c1=O [Example 2]
IC50 (nM): 35

COMPOUND: Cc1c(-c2ccnn2-c2ccc(C#N)cc2)c(=O)n(C)c(=O)n1-c1cccc(C(F)(F)F)n1 [Example 33]
IC50 (nM): 74600

COMPOUND: Cc1c(-c2ccnn2-c2ccc(C#N)cc2)c(=O)n(CCCC(=O)O)c(=O)n1-c1cccc(C(F)(F)F)c1 [Example 74]
IC50 (nM): 312

COMPOUND: Cc1c(-c2ccnn2-c2ccc(C#N)cc2)c(=O)n(C)c(=O)n1-c1ccc(F)c(C(F)(F)F)c1 [Example 13]
IC50 (nM): 86

COMPOUND: Cc1c(-c2ccnn2-c2ccc(C#N)cc2)c(=O)n(CCN(C)C)c(=O)n1-c1cccc(C(F)(F)F)c1 [Example 69]
IC50 (nM): 114

COMPOUND: Cc1c(-c2ccnn2-c2ccc(C#N)cc2S(C)(=O)=O)c(=O)n(C)c(=O)n1-c1cccc(C(F)(F)F)c1 [Example 102]
IC50 (nM): 150

COMPOUND: Cc1c(-c2ccnn2-c2ccc(C#N)cc2)c(=O)n(CC(=O)OCc2ccccc2)c(=O)n1-c1cccc(C(F)(F)F)c1 [Example 6]
IC50 (nM): 123

COMPOUND: CCOC(=O)CCn1c(=O)c(-c2ccnn2-c2ccc(C#N)cc2)c(C)n(-c2cccc(C(F)(F)F)c2)c1=O [Example 4]
IC50 (nM): 131

COMPOUND: Cc1c(-c2ccnn2-c2ccc(C#N)cc2)c(=O)n(C)c(=O)n1-c1cccc(-c2ccccc2)c1 [Example 107]
IC50 (nM): 5400

COMPOUND: CNC(=O)c1cccc(-n2c(C)c(-c3ccnn3-c3ccc(C#N)cc3)c(=O)n(C)c2=O)c1 [Example 105]
IC50 (nM): 22300

COMPOUND: CC(=O)NCCCCCn1c(=O)c(-c2ccnn2-c2ccc(C#N)cc2)c(C)n(-c2cccc(C(F)(F)F)c2)c1=O [Example 86]
IC50 (nM): 3.2

COMPOUND: COC(Cn1c(=O)c(-c2ccnn2-c2ccc(C#N)cc2)c(C)n(-c2cccc(C(F)(F)F)c2)c1=O)OC [Example 7]
IC50 (nM): 120

COMPOUND: Cc1c(-c2ccnn2-c2ccc(C#N)cc2)c(=O)n(CC(=O)N[C@@H](C)c2ccccc2)c(=O)n1-c1cccc(C(F)(F)F)c1 [Example 82]
IC50 (nM): 108

COMPOUND: Cc1c(-c2ccnn2-c2ccc(F)cc2)c(=O)n(C)c(=O)n1-c1cccc(C(F)(F)F)c1 [Example 22]
IC50 (nM): 793

COMPOUND: Cc1c(-c2ccnn2-c2ccc(C#N)cc2)c(=O)n(CCC(=O)N(C)C)c(=O)n1-c1cccc(C(F)(F)F)c1 [Example 75]
IC50 (nM): 656

COMPOUND: Cc1c(-c2ccnn2-c2ccc(C#N)cc2)c(=O)n(C)c(=O)n1-c1ccccc1 [Example 14]
IC50 (nM): 12600

COMPOUND: CCOC(=O)Cn1c(=O)c(-c2ccnn2-c2ccc(C#N)cc2)c(C)n(-c2cccc(C(F)(F)F)c2)c1=O [Example 3]
IC50 (nM): 104

COMPOUND: CCOC(=O)CCCn1c(=O)c(-c2ccnn2-c2ccc(C#N)cc2)c(C)n(-c2cccc(C(F)(F)F)c2)c1=O [Example 5]
IC50 (nM): 170
